Cited source: PubChem BioAssay (NCI)

System: UACC-62 melanoma
Assay: NCI-60 one-dose screen, 48 h (100 = growth as untreated, 0 = no growth, -100 = all killed)
Conditions: 10 µM unless noted
Experimental: Growth inhibition of the UACC-62 human tumor cell line is measured as a screen for anti-cancer activity. Cells are grown in 96 well plates and exposed to the test compound for 48 hours. Compounds are tested at a single concentration, which is 10^-5 M for most compounds. The reported endpoint is percent growth (GI% or GIPRCNT), where numbers from 0 - 100% represent growth inhibition, and numbers from -100% - 0 represent cell death. For example, a value of 40 represents 60% growth inhibition. […]
Compounds without any hit were thinned out: in the full panel of roughly 83,000, 20% have a hit.
Attribute: growth
Report only the number, with the unit % understood.

Below: 3 compounds and their reported growth.
[
  {
    "compound": "Cc1ccc(SC2c3ccc(C)cc3Oc3nc(N)c(C#N)c(N)c32)cc1 (centres undefined)",
    "recordedMeasurement": 103
  },
  {
    "compound": "CC[C@]12C=CCN3CC[C@@]4(c5cc(NC(=O)CCC(=O)O[C@H]6CC[C@H]7[C@@H]8CC[C@H]9CC(=O)CC[C@]9(C)[C@H]8CC[C@]67C)c(OC)cc5N(C)[C@H]4[C@@](O)(C(=O)OC)[C@@H]1OC(C)=O)[C@@H]32",
    "recordedMeasurement": 81.2
  },
  {
    "compound": "CCc1c(C(=O)N[C@@H](C(=O)OCc2ccccc2)C(C)O)[nH]c2ccc(Cl)cc12 (some centres undefined)",
    "recordedMeasurement": 91.4
  }
]

Provide only the value of recorded growth for `Cc1nn(-c2ccc(-c3ccc(OC(F)(F)F)cc3)cc2)c2nc(-c3ccccc3)nc(N)c12`
99.9

Provide only the value of recorded growth for COC1=CC2C=C(C3N(c4ccccc4)NC(=O)[C@@H]4CCCN34)C(=O)NC2C=C1 (some centres undefined)
104
